targetOrSystem: human renin (Homo sapiens, UniProt P00797)
Construct: from tissue; host or cells: human plasma from blood of healthy volunteers
Sequence (P00797 67-406): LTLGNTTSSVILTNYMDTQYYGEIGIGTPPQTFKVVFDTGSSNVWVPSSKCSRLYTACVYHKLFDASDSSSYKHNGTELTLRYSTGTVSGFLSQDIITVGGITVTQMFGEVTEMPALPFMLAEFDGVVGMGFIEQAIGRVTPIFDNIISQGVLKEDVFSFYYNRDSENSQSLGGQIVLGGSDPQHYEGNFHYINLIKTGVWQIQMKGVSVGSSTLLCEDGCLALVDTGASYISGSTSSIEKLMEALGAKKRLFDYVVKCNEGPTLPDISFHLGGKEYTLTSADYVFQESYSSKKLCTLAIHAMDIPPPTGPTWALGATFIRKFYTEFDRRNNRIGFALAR
experimentalProtocol: In vitro human renin inhibition (renin activity in human plasma, angiotensin I radioimmunoassay)
Format: biochemical
experimentalContext: human plasma from healthy volunteers; angiotensin I difference between 37° and 4° incubation for 2h; linear regression of at least three concentrations; read-out: IC₅₀
measuredProperty: pIC50
// scale note: pIC50 = -log10(conc_M); give the bare number

## Task Give human renin (Homo sapiens, UniProt P00797) pIC50 for CC(C)C[C@H](NC(=O)[C@H](Cc1ccccc1)NC(=O)CC1COc2ccc(CNCC(=O)O)cc21)C(=O)N[C@@H](CC1CCCCC1)[C@@H](O)CC(=O)NCCCn1ccnc1 (some centres unmarked)
## Result 7.32

## Task Another compound to look at: CC(C)C[C@H](NC(=O)[C@H](Cc1ccccc1)NC(=O)CC1CS(=O)(=O)c2ccccc21)C(=O)N[C@@H](CC1CCCCC1)[C@@H](O)CC(=O)NCCCCC(=O)O (some centres unmarked)
## Result 7.35

## Task Another compound to look at: CC(C)C[C@H](NC(=O)[C@H](Cc1ccccc1)NC(=O)CC1CS(=O)(=O)c2ccc(CN)cc21)C(=O)N[C@@H](CC1CCCCC1)[C@@H](O)CC(=O)NCCCn1ccnc1 (some centres unmarked)
## Result 7.92

## Task Another compound to look at: CC(C)C[C@H](NC(=O)[C@H](Cc1ccccc1)NC(=O)CC1CS(=O)(=O)c2cc(CN)ccc21)C(=O)N[C@@H](CC1CCCCC1)[C@@H](O)CC(=O)NCCCn1ccnc1 (some centres unmarked)
## Result 7.70

## Task Another compound to look at: CC(C)C[C@H](NC(=O)[C@H](Cc1ccccc1)NC(=O)CC1CS(=O)(=O)c2cc(CN)ccc21)C(=O)N[C@@H](CC1CCCCC1)[C@@H](O)CC(=O)NCCCC(=O)O (some centres unmarked)
## Result 7.36

## Task Another compound to look at: CC(C)C[C@H](NC(=O)[C@H](Cc1ccccc1)NC(=O)CC1CS(=O)(=O)c2ccccc21)C(=O)N[C@@H](CC1CCCCC1)[C@@H](O)CC(=O)NCCCn1ccnc1 (some centres unmarked)
## Result 7.82

## Task Another compound to look at: CC(C)C[C@H](NC(=O)[C@H](Cc1ccccc1)NC(=O)CC1COc2ccc(CN)cc21)C(=O)N[C@@H](CC1CCCCC1)[C@@H](O)CC(=O)NCCCn1ccnc1 (some centres unmarked)
## Result 7.49

## Task Another compound to look at: CC(C)C[C@H](NC(=O)[C@H](Cc1ccccc1)NC(=O)CC1CS(=O)(=O)c2ccccc21)C(=O)N[C@@H](CC1CCCCC1)[C@@H](O)CC(=O)NCCN1CCN(C)CC1 (some centres unmarked)
## Result 7.02
